From: ChEMBL document CHEMBL1143422

Tested on: Human immunodeficiency virus 2
Test: Antiviral activity against HIV2 MS infected in human PBMC cells assessed as inhibition of virus production after 5 days by Lenti-RT activity assay
Assay type: functional, organism-based
Settings: Human immunodeficiency virus 2, PBMC, 120 h
value kind: pEC50
One number for each entry, as −log10 of the molar value.

So for Cc1cccc(C)c1OCC(=O)N[C@@H](Cc1ccccc1)[C@@H](O)C[C@H](Cc1ccccc1)NC(=O)[C@H](C(C)C)N1CCCNC1=O [LOPINAVIR] , the logged pEC50 turned out to be 7.82
